Test system: Mus musculus
Procedure Details: Toxicity in nude mouse ectopically xenografted with human HepG2 cells assessed as spleen weight index at 25 mg/kg, ip administered once in 2 days measured after 30 days (reference value: 0.002 to 0.0106)
Assay type: organism-based
Settings: in vivo, 720 h

# Query Smiles, Activity index
rows = [
    ("O=c1[nH]cc(F)c(=O)[nH]1", "0.005 to 0.0144"),
]

----------
Tested on: Mus musculus
Procedure Details: Toxicity in nude mouse ectopically xenografted with human HepG2 cells assessed as liver weight index at 3 mg/kg, ip administered once in 2 days measured after 30 days (reference value: 0.0009 to 0.0187)
Type: organism-based
Settings: in vivo, 720 h
Property Measured: Activity index

# Query Smiles, Property Measured, Assay Result
measured = [
    ("COc1ccc(CNc2ccc(C(=O)NCCCN(C)C)c3[nH]c4c([N+](=O)[O-])cccc4c(=O)c23)cc1.Cl", "Activity index", "0.0025 to 0.0198"),
]

----------
Test system: Mus musculus
Procedure Details: Toxicity in nude mouse ectopically xenografted with human HepG2 cells assessed as liver weight at 3 mg/kg, ip administered once in 2 days measured after 30 days (reference value: 0.069 to 0.434 g)
Assay type: organism-based
Settings: in vivo, 720 h
Property Measured: Activity

# Query Smiles, Property Measured, Assay Result
rows = [
    ("COc1ccc(CNc2ccc(C(=O)NCCCN(C)C)c3[nH]c4c([N+](=O)[O-])cccc4c(=O)c23)cc1.Cl", "Activity", "0.032 to 0.421 g"),
]

----------
System: Mus musculus
Procedure Details: Toxicity in nude mouse ectopically xenografted with human HepG2 cells assessed as liver weight at 25 mg/kg, ip administered once in 2 days measured after 30 days (reference value: 0.069 to 0.434 g)
Format: organism-based
Settings: in vivo, 720 h

# Query Smiles, Activity
data = [
    ("O=c1[nH]cc(F)c(=O)[nH]1", "0.062 to 0.419 g"),
]

----------
Test system: Mus musculus
Procedure Details: Toxicity in nude mouse ectopically xenografted with human HepG2 cells assessed as spleen weight at 0.33 mg/kg, ip administered once in 2 days measured after 30 days (reference value: 0.071 to 0.248 g)
Type: organism-based
Settings: in vivo, 720 h
Property Measured: Activity

# Query Smiles, Property Measured, Assay Result
measured = [
    ("COc1ccc(CNc2ccc(C(=O)NCCCN(C)C)c3[nH]c4c([N+](=O)[O-])cccc4c(=O)c23)cc1.Cl", "Activity", "0.044 to 0.231 g"),
]

----------
Tested on: Mus musculus
Procedure Details: Toxicity in nude mouse ectopically xenografted with human HepG2 cells assessed as liver weight at 0.33 mg/kg, ip administered once in 2 days measured after 30 days (reference value: 0.069 to 0.434 g)
Format: organism-based
Settings: in vivo, 720 h

# Query Smiles, Activity
data = [
    ("COc1ccc(CNc2ccc(C(=O)NCCCN(C)C)c3[nH]c4c([N+](=O)[O-])cccc4c(=O)c23)cc1.Cl", "0.04 to 0.441 g"),
]

----------
System: Mus musculus
Procedure Details: Toxicity in nude mouse ectopically xenografted with human HepG2 cells assessed as spleen weight index at 3 mg/kg, ip administered once in 2 days measured after 30 days (reference value: 0.002 to 0.0106)
Type: organism-based
Settings: in vivo, 720 h

# Query Smiles, Activity index
data = [
    ("COc1ccc(CNc2ccc(C(=O)NCCCN(C)C)c3[nH]c4c([N+](=O)[O-])cccc4c(=O)c23)cc1.Cl", "0.0042 to 0.0162"),
]

----------
System: Mus musculus
Procedure Details: Toxicity in nude mouse ectopically xenografted with human HepG2 cells assessed as liver weight index at 0.33 mg/kg, ip administered once in 2 days measured after 30 days (reference value: 0.0009 to 0.0187)
Assay type: organism-based
Settings: in vivo, 720 h

# Query Smiles, Activity index
measured = [
    ("COc1ccc(CNc2ccc(C(=O)NCCCN(C)C)c3[nH]c4c([N+](=O)[O-])cccc4c(=O)c23)cc1.Cl", "0.0016 to 0.0217"),
]

----------
Tested on: Mus musculus
Procedure Details: Toxicity in nude mouse ectopically xenografted with human HepG2 cells assessed as liver weight index at 25 mg/kg, ip administered once in 2 days measured after 30 days (reference value: 0.0009 to 0.0187)
Assay type: organism-based
Settings: in vivo, 720 h

# Query Smiles, Activity index
data = [
    ("O=c1[nH]cc(F)c(=O)[nH]1", "0.0034 to 0.0231"),
]

----------
System: Mus musculus
Procedure Details: Toxicity in nude mouse ectopically xenografted with human HepG2 cells assessed as spleen weight at 3 mg/kg, ip administered once in 2 days measured after 30 days (reference value: 0.071 to 0.248 g)
Format: organism-based
Settings: in vivo, 720 h
Property Measured: Activity

# Query Smiles, Assay Result
rows = [
    ("COc1ccc(CNc2ccc(C(=O)NCCCN(C)C)c3[nH]c4c([N+](=O)[O-])cccc4c(=O)c23)cc1.Cl", "0.084 to 0.344 g"),
]
